- STUDY_TARGET: Follicle-stimulating hormone receptor (Homo sapiens)
- METHOD_SUMMARY: Counterscreen for antagonists of the thyroid stimulating hormone receptor: ELISA activity in a Follicle Stimulating Hormone receptor cell line
- CONDITION: HEK293-FSHR, FSH-induced cAMP ELISA chemiluminescence
The source made the active and inactive calls.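 The calls were made as follows: active = compound that blocked FSH-driven cAMP in FSH receptor cells, giving a fitted IC50; inactive = the rest.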
Possible outcomes: active, inactive

[[record]]
compound = "COc1ccc(C2Nc3ccccc3C(=O)N2Cc2ccco2)cc1CSc1c(C)cccc1C (stereo not given)"
classification = "active"

[[record]]
compound = "CCc1cccc(CC)c1OCc1cc(C2Nc3ccccc3C(=O)N2Cc2ccco2)ccc1OC (stereo not given)"
classification = "inactive"

[[record]]
compound = "COc1ccc(C2Nc3ccccc3C(=O)N2Cc2cccnc2)cc1COc1c(C)cccc1C (stereo not given)"
classification = "active"

[[record]]
compound = "COc1ccc(C2Nc3ccccc3C(=O)N2Cc2ccco2)cc1COc1c(C)cc(NC(C)=O)cc1C (stereo not given)"
classification = "inactive"

[[record]]
compound = "COc1ccc(C2Nc3ccccc3C(=O)N2Cc2ccco2)cc1COc1c(C)cccc1C (stereo not given)"
classification = "active"

